Hey, just so you know, these numbers are from paper PMC9482650.

- SYSTEM_TESTED: T1, PDZD2_2, O15018
- T1 sequence (O15018 329-429, limits assumed, looked up): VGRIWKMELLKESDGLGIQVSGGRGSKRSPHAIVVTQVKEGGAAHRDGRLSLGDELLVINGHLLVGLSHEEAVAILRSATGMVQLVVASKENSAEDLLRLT
- MEASUREMENT_NOTES: holdup assay
- Set-up: key: below the threshold = too weak to quantify, mostly under pKd 3.1 to 4
- DETAILS: plain residues with an end cap or a label only (N-terminal biotin on a linker: ttds)
Outcome label depends on pKd relative to 4: at/above gives class 1, below gives class 0.

- BINDER: "SSLQSLETSV [ATP2B4, P23634]"
  CAT: "class 1"
- BINDER: "RHTTSTETAV [HPV30-E6, P36809]"
  CAT: "class 1"
- BINDER: "RLQRRRETQV [HPV18-E6, P06463]"
  CAT: "class 0"
- BINDER: "SKPTRRETEV [HPV35-E6, P27228]"
  CAT: "class 0"
- BINDER: "EVVHTPETSV [SLC16A3, O15427]"
  CAT: "class 1"
- BINDER: "DKDPHSETAL [TMIGD1, Q6UXZ0]"
  CAT: "class 0"
- BINDER: "PVRVCEETSL [OTULIN, Q96BN8]"
  CAT: "class 0"
